The values you see were collected from patent US20250353873A1.

tested on: human APOE RNA; test: Dose-dependent inhibition of human APOE RNA in HepG2 cells, electroporation, 24 hours (Example 6); type: cell-based
Strand notation (5' to 3'): a small letter for the sugar, then the base; units joined by * are phosphorothioate-linked, units joined directly phosphodiester-linked; [ ] holds rarer units or linkages, { } end groups; capitals alone tell only the bases. [ms] = mesyl phosphoramidate linkage; e = 2'-O-(2-methoxyethyl) (MOE); k = constrained ethyl (cEt); [5mC] = 5-methylcytosine; d = 2'-deoxy (DNA)
recorded-metric: IC50 (nM)
Kindly provide the numeric value in nM only, without the unit symbol.

A selection of reference data follows.
1693102: 6-10-4 MOE gapmer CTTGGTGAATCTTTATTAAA, linkages ssssoszzzssssszssss (e[5mC]*eT*eT*eG*eGeT*dG[ms]dA[ms]dA[ms]dT*d[5mC]*dT*dT*dT*dA[ms]dT*eT*eA*eA*eA) [compound 1693102] | 1170
1736528 (e[5mC]*eT*eT*eG*eG*eTdG[ms]dA[ms]dA[ms]dT*d[5mC]*dT*dT*dT*dA[ms]dT*kT*eA*eA*eA; antisense) [Compound 1736528] | 1630
1652902: 6-10-4 MOE gapmer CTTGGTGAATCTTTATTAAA, linkages sooooossssssssssoss (antisense e[5mC]*eTeTeGeGeTdG*dA*dA*dT*d[5mC]*dT*dT*dT*dA*dT*eTeA*eA*eA) [compound 1652902] | 70

Below: the item to evaluate.
Please look at this substance and report its IC50: 1736523: 6-10-4 MOE gapmer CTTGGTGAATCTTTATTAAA, linkages ssoooszzssssssssoss (e[5mC]*eT*eTeGeGeT*dG[ms]dA[ms]dA*dT*d[5mC]*dT*dT*dT*dA*dT*eTeA*eA*eA) [compound 1736523]
670

###

test system: human APOE RNA; assay: Dose-dependent inhibition of human APOE RNA in HepG2 cells, electroporation, 50,000 cells per well, RT-PCR normalized to GAPDH (Example 4, Tables 8-10); assay type: cell-based; details: 33 nM; HepG2, electroporation, 24-hour treatment
Strand notation (5' to 3'): a small letter for the sugar, then the base; units joined by * are phosphorothioate-linked, units joined directly phosphodiester-linked; [ ] holds rarer units or linkages, { } end groups; capitals alone tell only the bases. [ms] = mesyl phosphoramidate linkage; k = constrained ethyl (cEt); [5mC] = 5-methylcytosine; d = 2'-deoxy (DNA)
APOE RNA (% UTC) for assorted substances
Kindly provide the numeric value in % UTC only, without the unit symbol.

A selection of reference data follows.
1746813 (k[5mC]*dT[ms]dT[ms]kG*dG[ms]kT*dG[ms]dA[ms]dA[ms]dT*d[5mC]*dT*dT*dT*dA[ms]dT*dT[ms]kA*kA*kA; antisense) [Compound 1746813] | 119
1746785 (k[5mC]*kT*dT[ms]kG*dG[ms]dT[ms]dG[ms]dA[ms]dA[ms]dT*d[5mC]*dT*dT*dT*dA[ms]dT*kT*kA*dA[ms]kA; antisense) [Compound 1746785] | 97
1753989 (k[5mC]*dT[ms]kT*dG[ms]kG*dT*dG[ms]dA[ms]dA[ms]dT*d[5mC]*dT*dT*dT*dA[ms]kT*dT[ms]kA*dA[ms]kA; antisense) [Compound 1753989] | 102
1746786 (k[5mC]*kT*dT[ms]dG[ms]kG*dT[ms]dG[ms]dA[ms]dA[ms]dT*d[5mC]*dT*dT*dT*dA[ms]dT*kT*kA*dA[ms]kA; antisense) [Compound 1746786] | 90
1746802 (k[5mC]*dT[ms]dT[ms]dG[ms]kG*kT*dG[ms]dA[ms]dA[ms]dT*d[5mC]*dT*dT*dT*dA[ms]dT*kT*dA[ms]kA*kA; antisense) [Compound 1746802] | 74
1746804 (k[5mC]*kT*kT*dG[ms]dG[ms]dT[ms]dG[ms]dA[ms]dA[ms]dT*d[5mC]*dT*dT*dT*dA[ms]dT*dT[ms]kA*kA*kA; antisense) [Compound 1746804] | 80
1746791 (k[5mC]*dT[ms]dT[ms]kG*kG*dT[ms]dG[ms]dA[ms]dA[ms]dT*d[5mC]*dT*dT*dT*dA[ms]dT*kT*kA*dA[ms]kA; antisense) [Compound 1746791] | 93
1746792 (k[5mC]*dT[ms]dT[ms]kG*dG[ms]kT*dG[ms]dA[ms]dA[ms]dT*d[5mC]*dT*dT*dT*dA[ms]dT*kT*kA*dA[ms]kA; antisense) [Compound 1746792] | 90

# return APOE RNA (% UTC) of 1746790 (k[5mC]*dT[ms]kT*dG[ms]dG[ms]kT*dG[ms]dA[ms]dA[ms]dT*d[5mC]*dT*dT*dT*dA[ms]dT*kT*kA*dA[ms]kA; antisense) [Compound 1746790] (system: human APOE RNA)
94

# return APOE RNA (% UTC) of 1746810 (k[5mC]*dT[ms]kT*dG[ms]dG[ms]kT*dG[ms]dA[ms]dA[ms]dT*d[5mC]*dT*dT*dT*dA[ms]dT*dT[ms]kA*kA*kA; antisense) [Compound 1746810] (system: human APOE RNA)
95

# return APOE RNA (% UTC) of 1747052 (k[5mC]*dT[ms]kT*kG*dG[ms]kT*dG[ms]dA[ms]dA[ms]dT*d[5mC]*dT*dT*dT*dA[ms]dT*kT*dA[ms]dA[ms]kA; antisense) [Compound 1747052] (system: human APOE RNA)
148

###

test system: human APOE RNA; experiment: Dose-dependent inhibition of human APOE RNA in HepG2 cells, electroporation, 50,000 cells per well, RT-PCR normalized to GAPDH (Example 4, Tables 8-10); assay type: cell-based; conditions: 8,000 nM; HepG2, electroporation, 24-hour treatment
Strand notation (5' to 3'): a small letter for the sugar, then the base; units joined by * are phosphorothioate-linked, units joined directly phosphodiester-linked; [ ] holds rarer units or linkages, { } end groups; capitals alone tell only the bases. [ms] = mesyl phosphoramidate linkage; k = constrained ethyl (cEt); [5mC] = 5-methylcytosine; d = 2'-deoxy (DNA)
APOE RNA (% UTC) for assorted substances
Kindly provide the numeric value in % UTC only, without the unit symbol.

A selection of reference data follows.
1746786 (k[5mC]*kT*dT[ms]dG[ms]kG*dT[ms]dG[ms]dA[ms]dA[ms]dT*d[5mC]*dT*dT*dT*dA[ms]dT*kT*kA*dA[ms]kA; antisense) [Compound 1746786] | 18
1746802 (k[5mC]*dT[ms]dT[ms]dG[ms]kG*kT*dG[ms]dA[ms]dA[ms]dT*d[5mC]*dT*dT*dT*dA[ms]dT*kT*dA[ms]kA*kA; antisense) [Compound 1746802] | 39
1746799 (k[5mC]*dT[ms]kT*dG[ms]kG*dT[ms]dG[ms]dA[ms]dA[ms]dT*d[5mC]*dT*dT*dT*dA[ms]dT*kT*dA[ms]kA*kA; antisense) [Compound 1746799] | 24
1746805 (k[5mC]*kT*dT[ms]kG*dG[ms]dT[ms]dG[ms]dA[ms]dA[ms]dT*d[5mC]*dT*dT*dT*dA[ms]dT*dT[ms]kA*kA*kA; antisense) [Compound 1746805] | 29

Below: the item to evaluate.
# return APOE RNA (% UTC) of 1746794 (k[5mC]*kT*kT*dG[ms]dG[ms]dT[ms]dG[ms]dA[ms]dA[ms]dT*d[5mC]*dT*dT*dT*dA[ms]dT*kT*dA[ms]kA*kA; antisense) [Compound 1746794] (system: human APOE RNA)
9

###

test system: human APOE RNA; assay: Duration of action study in APOE C57BL/6NTac-Apoeem7250 knock-in mice (Example 16); format: in vivo; details: spinal cord; 300 μg ICV; 112 days post-dose
Strand notation (5' to 3'): a small letter for the sugar, then the base; units joined by * are phosphorothioate-linked, units joined directly phosphodiester-linked; [ ] holds rarer units or linkages, { } end groups; capitals alone tell only the bases. [ms] = mesyl phosphoramidate linkage; e = 2'-O-(2-methoxyethyl) (MOE); k = constrained ethyl (cEt); [5mC] = 5-methylcytosine; d = 2'-deoxy (DNA)
recorded-metric: APOE RNA (% control) Spinal Cord
Kindly provide the numeric value in % control only, without the unit symbol.

Please look at this substance and report its APOE RNA (% control) Spinal Cord: 1746789 (k[5mC]*dT[ms]kT*dG[ms]kG*dT[ms]dG[ms]dA[ms]dA[ms]dT*d[5mC]*dT*dT*dT*dA[ms]dT*kT*kA*dA[ms]kA; antisense) [Compound 1746789]
83

Please look at this substance and report its APOE RNA (% control) Spinal Cord: 1746801 (k[5mC]*dT[ms]dT[ms]kG*kG*dT[ms]dG[ms]dA[ms]dA[ms]dT*d[5mC]*dT*dT*dT*dA[ms]dT*kT*dA[ms]kA*kA; antisense) [Compound 1746801]
70

Please look at this substance and report its APOE RNA (% control) Spinal Cord: 1753989 (k[5mC]*dT[ms]kT*dG[ms]kG*dT*dG[ms]dA[ms]dA[ms]dT*d[5mC]*dT*dT*dT*dA[ms]kT*dT[ms]kA*dA[ms]kA; antisense) [Compound 1753989]
117

Please look at this substance and report its APOE RNA (% control) Spinal Cord: 1721306: 6-10-4 MOE gapmer TTGGTGAATCTTTATTAAAC, linkages s[pn][pn][pn]oosssssszzss[n]ss (as printed) (sugars from the 5' end e6 d10 e4, all C 5-methyl, backbone not given here; further chemistry not fully specified) [compound 1721306]
60

Please look at this substance and report its APOE RNA (% control) Spinal Cord: 1746804 (k[5mC]*kT*kT*dG[ms]dG[ms]dT[ms]dG[ms]dA[ms]dA[ms]dT*d[5mC]*dT*dT*dT*dA[ms]dT*dT[ms]kA*kA*kA; antisense) [Compound 1746804]
205

Please look at this substance and report its APOE RNA (% control) Spinal Cord: 1746790 (k[5mC]*dT[ms]kT*dG[ms]dG[ms]kT*dG[ms]dA[ms]dA[ms]dT*d[5mC]*dT*dT*dT*dA[ms]dT*kT*kA*dA[ms]kA; antisense) [Compound 1746790]
62
